Test: chemical genetic growth profiling, strain panel (AID 1159580);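 also: tested at 20 µM; growth read once vehicle control cultures reached saturation at 30 °C; lower values mean less growth of the strain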
Conditions: S. cerevisiae deletion strains, growth OD, locus YPL256C, strain CLN2
The whole screen tested about 5,500 compounds, of which about 2,000 (36%) were called active. Inconclusive results (about 18%) are left out. Rule as the data show it: active = normalized growth mostly below about 0.91 (no sharp cut-off); inconclusive = no clear call, values can overlap the other calls; inactive = mostly above about 0.92. The list shows a part of the results.
Assign a class; possible classes are active, inactive

Compound | Assigned Class
O=[N+]([O-])c1ccc2oc(C(O)c3ccc(-c4ccccc4)cc3)cc2c1 (stereo not given) | inactive
Cc1onc(-c2c(Cl)cccc2Cl)c1C(=O)NNc1c(Cl)cccc1Cl | inactive
CC(=O)Nc1ccc(S(=O)(=O)Nc2ccccc2Oc2ccc(Cl)cc2Cl)cc1 | inactive
Cc1ccc(C)c(OCCCC(C)(C)C(=O)O)c1 | active
Nc1ccn(C2O[C@H](CO)[C@@H](O)[C@@H]2O)c(=O)n1 (stereo not given in full) | inactive

Identify the outcome logged in this assay for the compound shown: O=C1[C@H](CCC(O)c2ccc(F)cc2)[C@@H](c2ccc(O)cc2)N1c1ccc(F)cc1 (stereo not given in full)
inactive

Tell me the assay call for Cc1ccc(NS(=O)(=O)c2ccc(Cl)cc2)c(N=Cc2cc(Cl)cc(Cl)c2O)c1 please.
active

Dear colleague, could you share the recorded outcome for CC(C)(C)c1ccc(C(=O)NNc2c(Cl)cccc2Cl)cc1 when you have a moment?
active

Per the records of this test, what outcome belongs to Cc1onc(-c2c(F)cccc2Cl)c1C(=O)ON=C1C2CC3CC(C2)CC1C3 ?
inactive

Assay result, entry CC(C)NCC(O)c1cc(O)cc(O)c1 (stereo not given) — outcome?
inactive
